Biological target: T1, UPF3B-41-214 (human, UniProt Q9BZI7 41-214)
T1 sequence: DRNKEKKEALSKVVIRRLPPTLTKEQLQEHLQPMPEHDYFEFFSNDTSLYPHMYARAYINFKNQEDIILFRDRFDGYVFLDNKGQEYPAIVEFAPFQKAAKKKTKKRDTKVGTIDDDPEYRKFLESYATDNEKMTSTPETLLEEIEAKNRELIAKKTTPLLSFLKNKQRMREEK
Assay: fluorescence anisotropy; FA: 5 nM probe, 150 mM NaCl, 25 mM HEPES pH 7.45, 1 mM TCEP, 20 C; EMSA: 250 nM probe, 25 mM HEPES pH 7.45, 2 mM MgCl2, 150 mM NaCl, 0.5 mM TCEP, on ice
Conditions: protein: recombinant; tags: 6xHis removed by TEV; label: 5' HEX on strand 1; blunt
pKd: −log10 of the molar value.
MEASUREMENT NAME: pKd

24mer dsRNA (dsRNA) RNA 1: CCCUGAGCUGACGCAGCACCUGGG RNA 2: CCCAGGUGCUGCGUCAGCUCAGGG: 5.92
